# Assay type: in vivo, human
# condition_context: both, human, plasma, oral, 100 mg, AUC(0–inf), Geometric LS Means, Treatment A; only subjects with estimable elimination rates for all 3 treatments (N 7)
reported_endpoint: AUC(0-inf)

{"compound": "COc1ccc(CN(C(=O)[C@@H](N)Cc2c(C)cc(C(N)=O)cc2C)[C@@H](C)c2ncc(-c3ccccc3)[nH]2)cc1C(=O)O [eluxadoline]", "reported_endpoint": "AUC(0-inf)", "val": "15.7 ng·h/mL"}

====

# Type: in vivo, human
# condition_context: both, human, plasma, oral, 100 mg, AUC(0–inf), Geometric LS Means, Treatment A; all profiles with estimable elimination rates (N 20)
reported_endpoint: AUC(0-inf) (ng·h/mL)

{"smiles_str": "COc1ccc(CN(C(=O)[C@@H](N)Cc2c(C)cc(C(N)=O)cc2C)[C@@H](C)c2ncc(-c3ccccc3)[nH]2)cc1C(=O)O", "reported_endpoint": "AUC(0-inf)", "val": 14.7}
